tested on: HeLa Kyoto; experiment: thermal stability score vs G1/S (z-score of summed log2 fold changes over temperatures); higher = more thermally stable than in G1/S; conditions: cell cycle stage: mitosis
MEASURED_PROPERTY: thermal stability score
The reply should be a number, written without any unit.

Problem: Tell me its thermal stability score given MGTPQKDVIIKSDAPDTLLLEKHADYIASYGSKKDDYEYCMSEYLRMSGIYWGLTVMDLMGQLHRMNREEILAFIKSCQHECGGISASIGHDPHLLYTLSAVQILTLYDSINVIDVNKVVEYVKGLQKEDGSFAGDIWGEIDTRFSFCAVATLALLGKLDAINVEKAIEFVLSCMNFDGGFGCRPGSESHAGQIYCCTGFLAITSQLHQVNSDLLGWWLCERQLPSGGLNGRPEKLPDVCYSWWVLASLKIIGRLHWIDREKLRNFILACQDEETGGFADRPGDMVDPFHTLFGIAGLSLLGEEQIKPVNPVFCMPEEVLQRVNVQPELVS [RABGGTB] as the entry.
Solution: 1.64

Problem: Tell me its thermal stability score given MHPAGLAAAAAGTPRLRKWPSKRRIPVSQPGMADPHQLFDDTSSAQSRGYGAQRAPGGLSYPAASPTPHAAFLADPVSNMAMAYGSSLAAQGKELVDKNIDRFIPITKLKYYFAVDTMYVGRKLGLLFFPYLHQDWEVQYQQDTPVAPRFDVNAPDLYIPAMAFITYVLVAGLALGTQDRFSPDLLGLQASSALAWLTLEVLAILLSLYLVTVNTDLTTIDLVAFLGYKYVGMIGGVLMGLLFGKIGYYLVLGWCCVAIFVFMIRTLRLKILADAAAEGVPVRGARNQLRMYLTMAVAAAQPMLMYWLTFHLVR [YIF1B] as the entry.
Solution: -1.51

Problem: Tell me its thermal stability score given MTSEVIEDEKQFYSKAKTYWKQIPPTVDGMLGGYGHISSIDINSSRKFLQRFLREGPNKTGTSCALDCGAGIGRITKRLLLPLFREVDMVDITEDFLVQAKTYLGEEGKRVRNYFCCGLQDFTPEPDSYDVIWIQWVIGHLTDQHLAEFLRRCKGSLRPNGIIVIKDNMAQEGVILDDVDSSVCRDLDVVRRIICSAGLSLLAEERQENLPDEIYHVYSFALR [NTMT1] as the entry.
Solution: 1.61

Problem: Tell me its thermal stability score given MQRVSGLLSWTLSRVLWLSGLSEPGAARQPRIMEEKALEVYDLIRTIRDPEKPNTLEELEVVSESCVEVQEINEEEYLVIIRFTPTVPHCSLATLIGLCLRVKLQRCLPFKHKLEIYISEGTHSTEEDINKQINDKERVAAAMENPNLREIVEQCVLEPD [FAM96A] as the entry.
Solution: -0.983

Problem: Tell me its thermal stability score given MESVSCSAAAVRTGDMESQRDLSLVPERLQRREQERQLEVERRKQKRQNQEVEKENSHFFVATFVRERAAVEELLERAESVERLEEAASRLQGLQKLINDSVFFLAAYDLRQGQEALARLQAALAERRRGLQPKKRFAFKTRGKDAASSTKVDAAPGIPPAVESIQDSPLPKKAEGDLGPSWVCGFSNLESQVLEKRASELHQRDVLLTELSNCTVRLYGNPNTLRLTKAHSCKLLCGPVSTSVFLEDCSDCVLAVACQQLRIHSTKDTRIFLQVTSRAIVEDCSGIQFAPYTWSYPEIDKDFESSGLDRSKNNWNDVDDFNWLARDMASPNWSILPEEERNIQWD [TBCC] as the entry.
Solution: 0.503

Problem: Tell me its thermal stability score given MAATAAEAVASGSGEPREEAGALGPAWDESQLRSYSFPTRPIPRLSQSDPRAEELIENEEPVVLTDTNLVYPALKWDLEYLQENIGNGDFSVYSASTHKFLYYDEKKMANFQNFKPRSNREEMKFHEFVEKLQDIQQRGGEERLYLQQTLNDTVGRKIVMDFLGFNWNWINKQQGKRGWGQLTSNLLLIGMEGNVTPAHYDEQQNFFAQIKGYKRCILFPPDQFECLYPYPVHHPCDRQSQVDFDNPDYERFPNFQNVVGYETVVGPGDVLYIPMYWWHHIESLLNGGITITVNFWYKGAPTPKRIEYPLKAHQKVAIMRNIEKMLGEALGNPQEVGPLLNTMIKGRYN [HIF1AN] as the entry.
Solution: 1.68

Problem: Tell me its thermal stability score given MSSEPPPPPQPPTHQASVGLLDTPRSRERSPSPLRGNVVPSPLPTRRTRTFSATVRASQGPVYKGVCKCFCRSKGHGFITPADGGPDIFLHISDVEGEYVPVEGDEVTYKMCSIPPKNEKLQAVEVVITHLAPGTKHETWSGHVISS [CARHSP1] as the entry.
Solution: -0.699

Problem: Tell me its thermal stability score given MKFRAKIVDGACLNHFTRISNMIAKLAKTCTLRISPDKLNFILCDKLANGGVSMWCELEQENFFNEFQMEGVSAENNEIYLELTSENLSRALKTAQNARALKIKLTNKHFPCLTVSVELLSMSSSSRIVTHDIPIKVIPRKLWKDLQEPVVPDPDVSIYLPVLKTMKSVVEKMKNISNHLVIEANLDGELNLKIETELVCVTTHFKDLGNPPLASESTHEDRNVEHMAEVHIDIRKLLQFLAGQQVNPTKALCNIVNNKMVHFDLLHEDVSLQYFIPALS [HUS1] as the entry.
Solution: 1.19

Problem: Tell me its thermal stability score given MGELPLDINIQEPRWDQSTFLGRARHFFTVTDPRNLLLSGAQLEASRNIVQNYRAGVVTPGITEDQLWRAKYVYDSAFHPDTGEKVVLIGRMSAQVPMNMTITGCMLTFYRKTPTVVFWQWVNQSFNAIVNYSNRSGDTPITVRQLGTAYVSATTGAVATALGLKSLTKHLPPLVGRFVPFAAVAAANCINIPLMRQRELQVGIPVADEAGQRLGYSVTAAKQGIFQVVISRICMAIPAMAIPPLIMDTLEKKDFLKRRPWLGAPLQVGLVGFCLVFATPLCCALFPQKSSIHISNLEPELRAQIHEQNPSVEVVYYNKGL [SFXN3] as the entry.
Solution: -0.897

Problem: Tell me its thermal stability score given MDNSGKEAEAMALLAEAERKVKNSQSFFSGLFGGSSKIEEACEIYARAANMFKMAKNWSAAGNAFCQAAQLHLQLQSKHDAATCFVDAGNAFKKADPQEAINCLMRAIEIYTDMGRFTIAAKHHISIAEIYETELVDIEKAIAHYEQSADYYKGEESNSSANKCLLKVAGYAALLEQYQKAIDIYEQVGTNAMDSPLLKYSAKDYFFKAALCHFCIDMLNAKLAVQKYEELFPAFSDSRECKLMKKLLEAHEEQNVDSYTESVKEYDSISRLDQWLTTMLLRIKKTIQGDEEDLR [NAPA] as the entry.
Solution: -0.81

----------
test system: HeLa Kyoto; test: melting temperature (median over replicates), in situ; higher = more thermally stable; conditions: cell cycle stage: G1/S
MEASURED_PROPERTY: melting temperature (°C)
Number only, in °C; omit the unit.

Problem: Tell me its melting temperature given MGKVRGLRARVHQAAVRPKGEAAPGPAPPAPEATPPPASAAGKDWAFINTNIFARTKIDPSALVQKLELDVRSVTSVRRGEAGSSARSVPSIRRGAEAKTVLPKKEKMKLRREQWLQKIEAIKLAEQKHREERRRRATVVVGDLHPLRDALPELLGLEAGSRRQARSRESNKPRPSELSRMSAAQRQQLLEEERTRFQELLASPAYRASPLVAIGQTLARQMQLEDGGQL [FAM207A] as the entry.
Solution: 48.3

Problem: Tell me its melting temperature given MLFYSFFKSLVGKDVVVELKNDLSICGTLHSVDQYLNIKLTDISVTDPEKYPHMLSVKNCFIRGSVVRYVQLPADEVDTQLLQDAARKEALQQKQ [LSM2] as the entry.
Solution: 59.9

Problem: Tell me its melting temperature given MGAKQSGPAAANGRTRAYSGSDLPSSSSGGANGTAGGGGGARAAAAGRFPAQVPSAHQPSASGGAAAAAAAPAAPAAPRSRSLGGAVGSVASGARAAQSPFSIPNSSSGPYGSQDSVHSSPEDGGGGRDRPVGGSPGGPRLVIGSLPAHLSPHMFGGFKCPVCSKFVSSDEMDLHLVMCLTKPRITYNEDVLSKDAGECAICLEELQQGDTIARLPCLCIYHKGCIDEWFEVNRSCPEHPSD [ZNRF2] as the entry.
Solution: 52.7

Problem: Tell me its melting temperature given MRKMLAAVSRVLSGASQKPASRVLVASRNFANDATFEIKKCDLHRLEEGPPVTTVLTREDGLKYYRMMQTVRRMELKADQLYKQKIIRGFCHLCDGQEACCVGLEAGINPTDHLITAYRAHGFTFTRGLSVREILAELTGRKGGCAKGKGGSMHMYAKNFYGGNGIVGAQVPLGAGIALACKYNGKDEVCLTLYGDGAANQGQIFEAYNMAALWKLPCIFICENNRYGMGTSVERAAASTDYYKRGDFIPGLRVDGMDILCVREATRFAAAYCRSGKGPILMELQTYRYHGHSMSDPGVSYRTREEIQEVRSKSDPIMLLKDRMVNSNLASVEELKEIDVEVRKEIEDAAQFATADPEPPLEELGYHIYSSDPPFEVRGANQWIKFKSVS [PDHA1] as the entry.
Solution: 52.1

Problem: Tell me its melting temperature given MELSAEYLREKLQRDLEAEHVEVEDTTLNRCSCSFRVLVVSAKFEGKPLLQRHRLVNACLAEELPHIHAFEQKTLTPDQWARERQK [BOLA2] as the entry.
Solution: 50.9

Problem: Tell me its melting temperature given MSLVIRNLQRVIPIRRAPLRSKIEIVRRILGVQKFDLGIICVDNKNIQHINRIYRDRNVPTDVLSFPFHEHLKAGEFPQPDFPDDYNLGDIFLGVEYIFHQCKENEDYNDVLTVTATHGLCHLLGFTHGTEAEWQQMFQKEKAVLDELGRRTGTRLQPLTRGLFGGS [YBEY] as the entry.
Solution: 45.4

Problem: Tell me its melting temperature given MDPFLVLLHSVSSSLSSSELTELKFLCLGRVGKRKLERVQSGLDLFSMLLEQNDLEPGHTELLRELLASLRRHDLLRRVDDFEAGAAAGAAPGEEDLCAAFNVICDNVGKDWRRLARQLKVSDTKIDSIEDRYPRNLTERVRESLRIWKNTEKENATVAHLVGALRSCQMNLVADLVQEVQQARDLQNRSGAMSPMSWNSDASTSEAS [FADD] as the entry.
Solution: 52.3
